- Test system: Acinetobacter baumannii
- measurement_setup: Concentration 300 ug.mL-1; ASSAY_TEST Inhibition of Bacterial Growth; detection method Absorption (OD600); MEDIA CAMHB; plate type 384well; NBS; CORNING #3640; time 18 hr
- Description: Antibacterial activity against Acinetobacter baumannii ATCC 19606 (CO-ADD:GN_034); MIC in CAMBH media using NBS plates, by OD600
Hit rate of the full screen: of about 21,000 compounds, fewer than 10 showed an effect of 50% or more. Only a sample is shown. Potency and affinity values are given separately.
Let's look at some molecules and their measured Inhibition.
Number first, unit second.

Reported Inhibition, molecule O=C(CCC(F)(F)F)N[C@H]1CCCNC1 : ____
10.33%

Similarly, CC(C)CCNC(=O)CCn1cc(Br)ccc1=O ?
8.21%

Similarly, Cn1nnnc1SCc1cc(Cl)c2c(c1)OCCO2 ?
3.66%
